Where these numbers come from: ChEMBL document CHEMBL3797090

tested on: MCF7; assay: Cytotoxicity against human MCF7 cells assessed as cell viability at 33.3 uM after 72 hrs by cell titer glo assay; type: functional; settings: MCF7, 72 h, read-out: Activity
Entries annotated with measured viability at 33.3 µM

[
  {
    "compound": "COc1cccc(/C=C/CC(O)c2cc(O)c3c(c2O)C(=O)c2ccccc2C3=O)c1 (configuration not stated)",
    "tgt": "MCF7",
    "viability at 33.3 µM": "> 50%"
  },
  {
    "compound": "O=C1c2ccccc2C(=O)c2c(O)c(C(O)C/C=C/c3ccc(Br)cc3)cc(O)c21 (configuration not stated)",
    "tgt": "MCF7",
    "viability at 33.3 µM": "> 50%"
  },
  {
    "compound": "O=C1c2ccccc2C(=O)c2c(O)c(C(O)C/C=C/c3ccccc3F)cc(O)c21 (configuration not stated)",
    "tgt": "MCF7",
    "viability at 33.3 µM": "> 50%"
  },
  {
    "compound": "Cc1ccc(/C=C/CC(O)c2cc(O)c3c(c2O)C(=O)c2ccccc2C3=O)cc1 (configuration not stated)",
    "tgt": "MCF7",
    "viability at 33.3 µM": "> 50%"
  },
  {
    "compound": "O=C1c2ccccc2C(=O)c2c(O)c(C(O)C/C=C/c3ccccc3)cc(O)c21 (configuration not stated)",
    "tgt": "MCF7",
    "viability at 33.3 µM": "> 50%"
  }
]

What the record says about O=C1C2=C(C(=O)c3ccccc31)C(O)C1=C(O)CC(c3ccccc3)C1=C2O (configuration not stated) : viability at 33.3 µM is > 50%

What the record says about COc1ccccc1/C=C/CC(O)c1cc(O)c2c(c1O)C(=O)c1ccccc1C2=O (configuration not stated) : viability at 33.3 µM is > 50%
